The reported numbers originate from ChEMBL document CHEMBL1155182.

IC50 tested on Histone deacetylase 5 (Homo sapiens): recorded values
Sequence (Q9UQL6 whole entry): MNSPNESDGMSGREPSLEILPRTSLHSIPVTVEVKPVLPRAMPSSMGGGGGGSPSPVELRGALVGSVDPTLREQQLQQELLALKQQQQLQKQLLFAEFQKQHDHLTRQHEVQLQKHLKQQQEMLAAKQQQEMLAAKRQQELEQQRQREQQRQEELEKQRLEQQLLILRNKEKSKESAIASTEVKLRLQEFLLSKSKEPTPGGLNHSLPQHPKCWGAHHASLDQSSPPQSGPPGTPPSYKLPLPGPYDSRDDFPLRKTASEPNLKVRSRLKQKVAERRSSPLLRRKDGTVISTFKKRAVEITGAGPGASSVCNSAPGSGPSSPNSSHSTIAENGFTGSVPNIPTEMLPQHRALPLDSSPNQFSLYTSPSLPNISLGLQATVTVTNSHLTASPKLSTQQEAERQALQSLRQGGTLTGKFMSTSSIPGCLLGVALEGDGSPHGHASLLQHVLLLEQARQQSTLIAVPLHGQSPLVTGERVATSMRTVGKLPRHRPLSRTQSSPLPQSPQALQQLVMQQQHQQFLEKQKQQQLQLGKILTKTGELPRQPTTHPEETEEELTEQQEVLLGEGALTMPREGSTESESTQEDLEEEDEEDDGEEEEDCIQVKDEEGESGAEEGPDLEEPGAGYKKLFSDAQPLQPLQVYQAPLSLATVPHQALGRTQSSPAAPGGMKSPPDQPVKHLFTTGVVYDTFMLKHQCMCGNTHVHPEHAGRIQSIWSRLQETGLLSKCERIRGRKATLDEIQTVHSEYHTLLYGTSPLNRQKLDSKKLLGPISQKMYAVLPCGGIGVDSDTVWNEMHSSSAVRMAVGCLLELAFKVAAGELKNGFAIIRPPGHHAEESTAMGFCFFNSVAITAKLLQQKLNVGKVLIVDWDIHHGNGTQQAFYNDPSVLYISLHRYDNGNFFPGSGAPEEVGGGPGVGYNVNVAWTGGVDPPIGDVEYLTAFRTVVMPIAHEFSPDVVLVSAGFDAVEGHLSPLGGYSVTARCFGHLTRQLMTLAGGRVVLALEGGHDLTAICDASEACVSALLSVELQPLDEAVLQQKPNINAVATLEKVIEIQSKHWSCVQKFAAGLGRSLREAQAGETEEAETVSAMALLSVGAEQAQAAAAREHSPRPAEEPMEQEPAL
Numbers only, in µM.

[[record]]
given_smiles = "O=C(NO)C(c1ccc(Cl)cc1)c1ccc(Cl)cc1"
measured_property = "IC50"
assay_result = 0.21

[[record]]
given_smiles = "O=C(NO)C1c2ccccc2Cc2ccccc21"
measured_property = "IC50"
assay_result = 1.46

[[record]]
given_smiles = "CC(C(=O)NO)(c1ccccc1)c1ccccc1"
measured_property = "IC50"
assay_result = 1.2


Now for the compound whose IC50 we want.
Exercise: Bench note: what IC50 did CN1c2ccccc2C(C(=O)NO)c2ccccc21 show?
Solution: 0.47

----------
system.name: Histone deacetylase
experimental.setup: hek-293t
Description: Inhibition of class 2a HDAC in HEK293T cells after 16 hrs by whole cell assay
Record form. Attribute: IC50. Fill in for each entry.
Answers are plain numbers, in µM.

Worked cases, IC50 given:
[[record]]
given_smiles = "O=C(NO)C(c1ccc2c(c1)CCO2)c1ccc2c(c1)CCO2"
measured_property = "IC50"
assay_result = 0.9

[[record]]
given_smiles = "O=C(NO)C(c1ccc(F)cc1)c1ccc(F)cc1"
measured_property = "IC50"
assay_result = 3.5


Would you kindly look at the next entry?
Exercise: # input molecule: CC(C(=O)NO)(c1ccccc1)c1ccccc1 ; wanted: its IC50
Solution: 16
